- Tested on: Trypanosoma cruzi
- method_summary: Antiprotozoal activity against epimastigote form of Trypanosoma cruzi Tulahuen 2 assessed as parasite growth inhibition measured at day 5
- Format: functional, organism-based
- setup_conditions: Tulahuen 2, 120 h
Measured IC50 determines class: I: < 6 µM; II: ≥ 6 µM and < 8 µM; III: ≥ 8 µM

Worked set:
molecule | discrete_label
O/N=C1\c2ccccc2-c2c1c(N1CCN(c3ccccn3)CC1)nc1ccc(Br)cc21 | II
CC1(O)c2ccccc2-c2c1c(-n1ccnc1)nc1ccc(Br)cc21 (configuration not stated) | I
COc1cccc(NC(=S)Nc2ccc3nc(Oc4ccc(F)cc4C(C)O)c(Cc4ccccc4)cc3c2)c1 (configuration not stated) | III
COc1nc2ccc(Br)cc2cc1C(c1ccccc1)n1cnc([N+](=O)[O-])c1 (configuration not stated) | II
CC(C)CC(NC(=O)OCC1c2ccccc2-c2ccccc21)C(=O)O/N=C1\c2ccccc2-c2c1c(N1CCN(c3ccccn3)CC1)nc1ccc(Br)cc21 (configuration not stated) | II

Category lookup for the molecule COc1cccc(N2CCN(CC(O)COC3(C)c4ccccc4-c4c3c(N3CCN(C(c5ccccc5)c5ccccc5)CC3)nc3ccc(Br)cc43)CC2)c1 (configuration not stated)
III

Now give it for COc1ccccc1NC(=O)Nc1ccc2nc(Oc3ccc(F)cc3C(C)O)c(Cc3ccccc3)cc2c1 (configuration not stated) too.
I

Also check COc1nc2ccc(Br)cc2c2c1C(C)(OC(=O)N(C)C)c1ccccc1-2 (configuration not stated)
II

Here is the next molecule: COc1cccc(NC(=O)Nc2ccc3nc(Oc4ccc(F)cc4C(C)O)c(Cc4ccccc4)cc3c2)c1 (configuration not stated)
II

Can you check O=[N+]([O-])c1ccc2nc(Oc3ccc(F)cc3C(O)Cn3ccnc3)c(Cc3ccccc3)cc2c1 (configuration not stated) next?
I

// next record CSCCC(NC(=O)OC(C)(C)C)C(=O)O/N=C1\c2ccccc2-c2c1c(N1CCN(c3ccccn3)CC1)nc1ccc(Br)cc21 (configuration not stated)
II

Entry to check: COc1nc2ccc(Br)cc2c2c1C(C)(OCC(O)CN)c1ccccc1-2 (configuration not stated)
I

Queued: CC(C)(C)OC(=O)N1CCCC1C(=O)O/N=C1\c2ccccc2-c2c1c(-n1ccnc1)nc1ccc(Br)cc21 (configuration not stated)
II

Next molecule up: CC1(OCC2CO2)c2ccccc2-c2c1c(C(F)(F)F)nc1ccc(Br)cc21 (configuration not stated)
III

// next record COc1ccc(-c2ccn(CC(O)c3cc(F)ccc3Oc3nc4ccc([N+](=O)[O-])cc4cc3Cc3ccccc3)n2)cc1 (configuration not stated)
III

Every entry's value here was drawn from ChEMBL document CHEMBL2375345.
